Test: NCI Yeast Anticancer Drug Screen. Data for the rad50 strain (AID 155);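 note: 0% = growth of vehicle-only cultures of the same strain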
Settings: S. cerevisiae rad50 strain growth inhibition; at 50.0 µM; active compounds read high
Experimental: Growth inhibition of yeast strains with defined genetic alterations is measured as a screen for potential anti-cancer activity. Selected strains with alterations in DNA damage repair or cell cycle control were exposed to compounds and growth inhibition was measured relative to vehicle treated controls. The strain used in this assay is rad50
About 79,000 compounds went through this panel and 15% of them were active in at least one assay; those are over-represented in the sample as a whole.
For each entry below, report its growth inhibition value.
Your answer should be a plain number; it is taken to be in %.

Looking up "CCCC(=O)[O-].CCCC(=O)[O-].NCCN.NCCN.[Co+3].[O-][Cl+3]([O-])([O-])[O-]" , I found its growth inhibition recorded as -18.5

Entry "COC(=O)CCP(CCC(=O)OC)c1ccccc1" , growth inhibition reported as -3.9

Sample "CCOC(=O)c1cc2c(cn1)[nH]c1ccccc12" ; growth inhibition observed: 41.2

Value of measured growth inhibition for the entry "c1ccc([As](c2ccccc2)c2ccccc2)cc1" : 0.75

GET /value?item= CCCCCCP(=O)(CCCCCC)CCCCCC (tested in a mixture with another compound) &field=growth inhibition returns 77.3

# compound "c1c2c(cc3c1OCO3)-c1cc3ccc4c(c3c[n+]1CC2)OCO4" ; its growth inhibition = 9.2

Entry under test: CC(=O)Oc1ccc(CCN(C)C2CC3CCC2(C)C3(C)C)cc1OC(C)=O (stereo unspecified) . Its growth inhibition was 51.4

Recorded result, "Oc1ccc(Cl)c(Cl)c1" , growth inhibition: -3.45

Just so you know, measured growth inhibition for "CCN(CC)CCn1ccc2ccccc21" came out at -11.4

Kindly note the recorded growth inhibition for CC(Cl)CN(CC(C)Cl)C(=O)Oc1ccc(CC(N)C(=O)O)cc1 (stereo unspecified) , which is 31.1

Reported growth inhibition for "[CH-]=C([CH2-])C.[Ni][Br].c1ccc([PH+](c2ccccc2)c2ccccc2)cc1" was 35.5
